protocol.details: Whole blood stability, human
Assay type: in vitro ADME
setup.conditions: 30 min
endpoint.label: Whole Blood Stability % Remaining at 37° C. Human (%)
A number alone suffices; assume %.

Some solved cases for reference:
compound	output.unit	value.reported
COC(=O)c1ccc([C@@H]2c3[nH]c4ccc(Cl)cc4c3C[C@H](C(=O)OC)N2C(=O)CCl)cc1 [Compound 94]	%	50.3
O=C(O)c1ccc([C@H]2c3[nH]c4ccccc4c3C[C@H](C(=O)O)N2C(=O)CCl)cc1 [Compound 5]	%	106.3

Requested field: Whole Blood Stability % Remaining at 37° C. Human. Item: COC(=O)[C@H]1Cc2c([nH]c3ccccc23)[C@H](c2ccc(C(=O)OC(C)(C)C)cc2)N1C(=O)/C=C/CCl [Compound 25] 55.0

Also COC(=O)[C@H]1Cc2c([nH]c3ccccc23)[C@H](c2ccc(S(=O)(=O)N3CCC(O)CC3)cc2)N1C(=O)CCl [Compound 35] , if possible. 39.3
